assay notes: in vitro
Design: dose or concentration left out as unconfirmed
measurement parameters: human, liver microsomes
endpoint label: CLint scaled at 4 h (mL/min/kg)
# output: bare number, implied unit mL/min/kg

*Q* Name the recorded CLint scaled at 4 h for CC(C)c1ccc(CC(=O)N2CCN(c3ccc(C#N)nn3)CC2)cc1 .
*A* 175

---

assay notes: in vitro
Set-up: dose or concentration left out as unconfirmed
measurement parameters: mouse, liver microsomes
endpoint label: CLint scaled at 4 h

*Q* Please report the recorded CLint scaled at 4 h for CC(C)c1ccc(CC(=O)N2CCN(c3ccc(C#N)nn3)CC2)cc1 .
*A* 24.5 L/h/kg
